# Protocol text: Single dose PK, phase 1, healthy European men
# Format: in vivo, human
# Measurement context: male, human, plasma, SC bolus, read-out: Median Tmax, range over cohorts
# Experimental: The study was conducted in France. Eighty-two healthy European male subjects aged 50 to 76 years were enrolled into nine cohorts. 81/82 subjects (98.8%) were white and 1/82 subject (1.2%) was black/African American. Subjects enrolled in the first six cohorts received 0.001, 0.003, 0.01, 0.03, 0.1, or 0.3 mg of API-MA or placebo by single SC bolus. In the 0.3 mg cohort, 6 subjects received API-MA and two received placebo. In the remaining cohorts, 7 subjects received API-MA and three received placebo. […]
Where a SMILES comes first, the peptide text is derived from it. [ ]: non-standard residue; d: D form. Arg(Me) = CNC(=N)NCCC[C@H](N)C(=O)O; Hyp = O=C(O)[C@@H]1C[C@@H](O)CN1; azaGly = NNC(=O)O
Measured endpoint: Tmax

GET /values?readout=Tmax&item= CC(=O)O.CNC(=N)NCCC[C@H](NC(=O)[C@H](CC(C)C)NC(=O)NNC(=O)[C@H](Cc1ccccc1)NC(=O)[C@@H](NC(=O)[C@H](CC(N)=O)NC(=O)[C@@H]1C[C@@H](O)CN1C(=O)[C@@H](Cc1ccc(O)cc1)NC(C)=O)[C@@H](C)O)C(=O)N[C@@H](Cc1c[nH]c2ccccc12)C(N)=O [API-MA] (Ac-[dY][Hyp]NTF[azaGly]L[Arg(Me)]W-NH2)
30 to 45 min

* * *

# Protocol text: Single dose PK, phase 1, healthy European men
# Type: in vivo, human
# Measurement context: male, human, plasma, sc, 2-hour INF 1 mg, geometric mean
Where a SMILES comes first, the peptide text is derived from it. [ ]: non-standard residue; d: D form. Arg(Me) = CNC(=N)NCCC[C@H](N)C(=O)O; Hyp = O=C(O)[C@@H]1C[C@@H](O)CN1; azaGly = NNC(=O)O
Measured endpoint: CL/F (mL/min)
# output: bare number, implied unit mL/min

GET /values?readout=CL/F&item= CC(=O)O.CNC(=N)NCCC[C@H](NC(=O)[C@H](CC(C)C)NC(=O)NNC(=O)[C@H](Cc1ccccc1)NC(=O)[C@@H](NC(=O)[C@H](CC(N)=O)NC(=O)[C@@H]1C[C@@H](O)CN1C(=O)[C@@H](Cc1ccc(O)cc1)NC(C)=O)[C@@H](C)O)C(=O)N[C@@H](Cc1c[nH]c2ccccc12)C(N)=O [API-MA] (Ac-[dY][Hyp]NTF[azaGly]L[Arg(Me)]W-NH2)
380

* * *

# Protocol text: Single dose PK, phase 1, healthy Japanese men
# Format: in vivo, human
# Measurement context: male, human, plasma, sc, 0.5 mg, single 2-hour SC INF 0.5 mg, mean
Where a SMILES comes first, the peptide text is derived from it. [ ]: non-standard residue; d: D form. Arg(Me) = CNC(=N)NCCC[C@H](N)C(=O)O; Hyp = O=C(O)[C@@H]1C[C@@H](O)CN1; azaGly = NNC(=O)O
Measured endpoint: AUC(0-inf) (ng·h/mL)
# output: bare number, implied unit ng·h/mL

GET /values?readout=AUC(0-inf)&item= CC(=O)O.CNC(=N)NCCC[C@H](NC(=O)[C@H](CC(C)C)NC(=O)NNC(=O)[C@H](Cc1ccccc1)NC(=O)[C@@H](NC(=O)[C@H](CC(N)=O)NC(=O)[C@@H]1C[C@@H](O)CN1C(=O)[C@@H](Cc1ccc(O)cc1)NC(C)=O)[C@@H](C)O)C(=O)N[C@@H](Cc1c[nH]c2ccccc12)C(N)=O [API-MA] (Ac-[dY][Hyp]NTF[azaGly]L[Arg(Me)]W-NH2)
34.6
